# assay-explanation: Aqueous solubility of the compound at pH 7.4
# Assay type: physicochemical
# condition: aqueous medium

- compound-string: "COc1ccc(S(=O)(=O)N(CC(=O)O)c2ccc(N(CC(=O)O)S(=O)(=O)c3ccc(OC)cc3)c(OCc3ccccc3)c2)cc1"
  solubility: "348 µg/mL"
